- Tested on: Skme15
- experiment_notes: Toxicity with fluorescence viability probe (CellTiter-Fluo Cell Viability Assay)
- Type: cell-based, human
- assay_conditions: composite of the variation between drug-treated and control divided by the standard error
Can you tell me Viability z-score (treated minus control, divided by standard error) for the items I'm about to list?
Numbers only.

Here are 2 compounds together with their reported answers.
Ask: Query Viability z-score (treated minus control, divided by standard error) for c1ccc(-c2cnc3nonc3n2)cc1 [5-phenyl[1,2,5]oxadiazolo[3,4-b]pyrazine]
Reply: −0.0206

Ask: Query Viability z-score (treated minus control, divided by standard error) for "COc1ccc(OC)c(S(=O)(=O)N2CCC(C(=O)Nc3ccc(Cl)c(C(F)(F)F)c3)CC2)c1"
Reply: −0.2442

Please give Viability z-score (treated minus control, divided by standard error) for each item listed below.
1. COc1ccc2c(c1)OC1COc3cc(OC)c(OC)cc3C1C2=O (centres unmarked)
2. CC(C)(C)[C@H]1CC[C@@]2(CC1)[C@@H](C#N)[C@]2(C#N)C(=O)c1ccccc1
3. N#CC(C#N)=C(Nc1ccc(Br)cc1)SCc1ccc(F)cc1

Reply:
1. −4.2731
2. 0.4824
3. −1.5092

Please give Viability z-score (treated minus control, divided by standard error) for each item listed below.
1. COc1cc(CO)ccc1OCc1cccc(C(=O)O)c1
2. O=C(O)COc1cccc(-c2nc3ccccc3s2)c1
3. COc1cccc(C(=O)NC(c2ccc(Cl)cc2)c2c(O)ccc3ccccc23)c1 (centres unmarked)
4. O=c1[nH]c(=O)n(Cc2ccco2)c2c1C(C(F)(F)F)(C(F)(F)F)N=C(c1ccc(F)cc1)N2

Reply:
["−1.6406", "−0.0206", "−0.1221", "−2.0352"]

Please give Viability z-score (treated minus control, divided by standard error) for each item listed below.
1. O=C(CCSc1nc(-c2ccccc2)cs1)Nc1ccccc1
2. Cc1ccc(C23C[C@@H]4C[C@@H](CC(CN)(C4)C2)C3)cc1C

Reply:
1. −0.2442
2. −1.015

====

- Test system: Skme15
- experiment_notes: Toxicity with fluorescence viability probe (CellTiter-Fluo Cell Viability Assay)
- Type: cell-based, human
- assay_conditions: composite of the variation between drug-treated and control divided by the standard error
- Protocol: Although the shape of the dose-response can vary among hits, the inventors chose to include all candidates which produce dose-dependent effects. The fourth criterion which was determined is the IC50 (described formally as qAC50) which represents the half-maximal suppression dose. […] The sixth criterion to be determined is the Log P partition coefficient, which is a predictor of lipophilicity. […]
Can you tell me Viability z-score (treated minus control, divided by standard error) for the items I'm about to list?
Numbers only.

Please give Viability z-score (treated minus control, divided by standard error) for each item listed below.
1. O=C(NCCCc1ccccc1)N1c2ccccc2Sc2ccccc21
2. O=C(O)c1cccc(COc2ccc(CO)cc2Cl)c1
3. Clc1ccc(C2=NN=C(N3CCCC3)SC2)cc1
4. Cc1oc2c(c1C(=O)N1CCC(C)CC1)C(=O)c1ccccc1C2=O

Reply:
1: −4.128; 2: −1.5092; 3: −0.2442; 4: 0.1575

Please give Viability z-score (treated minus control, divided by standard error) for each item listed below.
1. Cc1ccc(C)c(C(Nc2ccccn2)c2cc(Cl)c3cccnc3c2O)c1 (centres unmarked)
2. O=C(O)CCSc1nc2ccccc2s1
3. CCOC(=O)COc1cccc(-c2nc3ccccc3s2)c1
4. Cc1ccc(OCC(=O)Nc2cccc(C(=O)O)c2)c(Br)c1
5. Oc1c(C(Nc2ccccn2)c2c(F)cccc2Cl)cc(Cl)c2cccnc12 (centres unmarked)
6. CCOC(=O)c1c(C)n(Cc2ccccc2)c2ccc(OCC(O)CNC(C)(C)C)cc12 (centres unmarked)
7. CC(C)(C)c1ccc(C(=O)N2CCN(c3ccc([N+](=O)[O-])c(NCc4cccnc4)c3)CC2)cc1

Reply:
1. −0.8893
2. −1.5092
3. −0.0206
4. −1.5092
5. −2.226
6. −2.519
7. −0.8893

====

Can you tell me Viability z-score (treated minus control, divided by standard error) for the items I'm about to list?
- Tested on: Skme15
- experiment_notes: Toxicity with fluorescence viability probe (CellTiter-Fluo Cell Viability Assay)
- Format: cell-based, human
- assay_conditions: composite of the variation between drug-treated and control divided by the standard error
- Experimental: Although the shape of the dose-response can vary among hits, the inventors chose to include all candidates which produce dose-dependent effects. The fourth criterion which was determined is the IC50 (described formally as qAC50) which represents the half-maximal suppression dose. […] The sixth criterion to be determined is the Log P partition coefficient, which is a predictor of lipophilicity. […]
Give bare numbers.

Ask: Query Viability z-score (treated minus control, divided by standard error) for "Cc1ccc2nc(-c3ccc(NC(=O)CSc4nnc(C)s4)cc3)sc2c1"
Reply: 1.032

Please give Viability z-score (treated minus control, divided by standard error) for each item listed below.
1. Cc1oc(-c2ccc3c(c2)OCCO3)cc1C(=O)NCC(=O)O
2. CCOc1ccc(OCC(=O)Nc2cccc(C(=O)O)c2)cc1

Reply:
["−0.0206", "−1.5092"]

Please give Viability z-score (treated minus control, divided by standard error) for each item listed below.
1. N#CC(C#N)=C(Nc1ccccc1Cl)SCc1cccc(F)c1
2. Cc1cccc(-c2nnc(SCC(=O)Nc3ccccc3F)o2)c1
3. COc1ccc([N+](=O)[O-])cc1NC(=O)COc1ccc(C(C)(C)C)cc1Br

Reply:
1: −1.5092; 2: −0.0206; 3: −1.6406
